Sourced from ChEMBL document CHEMBL4118129

- METHOD_NOTES: AUC in C57BL/6 mouse at 30 mg/kg, po by LC-MS/MS analysis
- Assay type: ADME, organism-based
- CONDITION_INFO: in vivo
VALUE_KIND: AUC (µM·h)
State just the number; it will be interpreted in µM·h.

Sample COc1ccc(C(C)(C)c2cnc(SCCOCc3ccc(C#N)cc3)n2-c2ccc(F)cc2)cc1OC — what was its AUC?
2.5

====

- METHOD_NOTES: Terminal half life in C57BL/6 mouse at 30 mg/kg, po by LC-MS/MS analysis
- Format: ADME, organism-based
- CONDITION_INFO: in vivo, read-out: beta t1/2 (converted)
VALUE_KIND: half-life (min)
State just the number; it will be interpreted in min.

Sample COc1ccc(C(C)(C)c2cnc(SCCOCc3ccc(C#N)cc3)n2-c2ccc(F)cc2)cc1OC — what was its half-life?
60
